In this section we review reported inhibition values for a set of compounds.
# tested.system: Receptor-type tyrosine-protein kinase FLT3 (Homo sapiens)
# test.description: inhibitors of Homo sapiens fms-like tyrosine kinase 3, primary HTS, cell-free, LANCE Ultra TR-FRET, NPC library from NCATS (AID 1117356)
# condition: recombinant FLT3, LANCE Ultra TR-FRET kinase assay; at 20 µM; stronger effect = higher value
Reply numerically in %, unit not repeated.

[
  {
    "chemical.string": "CC[C@]1(O)C[C@@H]2CN(CCc3c([nH]c4ccccc34)[C@@](C(=O)OC)(c3cc4c(cc3OC)N(C)[C@H]3[C@@](O)(C(=O)OC)[C@H](OC(C)=O)[C@]5(CC)C=CCN6CC[C@]43[C@@H]65)C2)C1",
    "recorded.measurement": -5.73
  },
  {
    "chemical.string": "O=[N+]([O-])c1ccc(O)c2ncccc12",
    "recorded.measurement": 7.93
  },
  {
    "chemical.string": "COc1c(C)c2c(c(O)c1C/C=C(\\C)CCC(=O)OCCN1CCOCC1)C(=O)OC2",
    "recorded.measurement": 16
  },
  {
    "chemical.string": "O=C(O)c1ccc(-n2nc(-c3ccccc3O)nc2-c2ccccc2O)cc1",
    "recorded.measurement": 31.5
  },
  {
    "chemical.string": "COc1ccc(-c2ccc3cc(C(=O)O)ccc3c2)cc1C12CC3CC(CC(C3)C1)C2",
    "recorded.measurement": 29.6
  }
]

Exercise: Hello, I am looking for reported inhibition with Receptor-type tyrosine-protein kinase FLT3 (Homo sapiens) for COCc1c(C(C)C)nc(C(C)C)c(/C=C/[C@@H](O)C[C@@H](O)CC(=O)O)c1-c1ccc(F)cc1 . Could you help?
Key: 8.38

Exercise: Hello, I am looking for reported inhibition with Receptor-type tyrosine-protein kinase FLT3 (Homo sapiens) for COc1cc2nc(N3CCN(C(=O)c4ccco4)CC3)nc(N)c2cc1OC . Could you help?
Key: 17.2

Exercise: Hello, I am looking for reported inhibition with Receptor-type tyrosine-protein kinase FLT3 (Homo sapiens) for CNC(=O)c1ccccc1Sc1ccc2c(/C=C/c3ccccn3)n[nH]c2c1 . Could you help?
Key: 76.9

Exercise: Hello, I am looking for reported inhibition with Receptor-type tyrosine-protein kinase FLT3 (Homo sapiens) for COc1cc([C@@H]2c3cc4c(cc3[C@H](O)[C@H]3COC(=O)[C@H]23)OCO4)cc(OC)c1OC . Could you help?
Key: 1.36

* * *

In this section we review reported inhibition values for a set of compounds.
# tested.system: Receptor-type tyrosine-protein kinase FLT3 (Homo sapiens) (UniProt P36888)
# Sequence (P36888 whole entry, looked up): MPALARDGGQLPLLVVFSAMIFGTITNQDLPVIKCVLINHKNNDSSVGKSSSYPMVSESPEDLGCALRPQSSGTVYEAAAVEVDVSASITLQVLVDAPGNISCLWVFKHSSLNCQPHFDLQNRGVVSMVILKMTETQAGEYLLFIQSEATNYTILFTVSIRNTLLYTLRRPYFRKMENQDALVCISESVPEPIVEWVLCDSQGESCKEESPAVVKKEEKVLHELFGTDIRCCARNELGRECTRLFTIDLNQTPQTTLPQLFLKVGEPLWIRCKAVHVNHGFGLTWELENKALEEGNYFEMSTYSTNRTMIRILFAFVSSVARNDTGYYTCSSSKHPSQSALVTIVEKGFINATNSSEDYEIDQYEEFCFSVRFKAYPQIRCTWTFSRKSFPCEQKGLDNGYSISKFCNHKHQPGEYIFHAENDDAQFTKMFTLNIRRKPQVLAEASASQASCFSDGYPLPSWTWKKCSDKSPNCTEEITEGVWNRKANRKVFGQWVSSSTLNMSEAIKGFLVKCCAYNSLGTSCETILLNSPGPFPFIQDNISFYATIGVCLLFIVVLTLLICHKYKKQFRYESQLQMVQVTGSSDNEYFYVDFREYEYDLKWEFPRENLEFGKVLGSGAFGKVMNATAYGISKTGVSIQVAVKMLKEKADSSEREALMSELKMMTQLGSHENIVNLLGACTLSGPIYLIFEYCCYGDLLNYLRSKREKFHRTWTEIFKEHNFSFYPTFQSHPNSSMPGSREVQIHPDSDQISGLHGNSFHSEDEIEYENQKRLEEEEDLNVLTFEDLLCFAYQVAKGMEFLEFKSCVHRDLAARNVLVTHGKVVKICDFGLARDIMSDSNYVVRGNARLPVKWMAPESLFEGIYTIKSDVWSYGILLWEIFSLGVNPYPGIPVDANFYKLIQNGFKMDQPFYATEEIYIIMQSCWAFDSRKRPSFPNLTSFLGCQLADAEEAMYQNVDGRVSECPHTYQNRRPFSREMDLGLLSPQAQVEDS
# test.description: inhibitors of Homo sapiens fms-like tyrosine kinase 3, primary HTS, cell-free, LANCE Ultra TR-FRET, NPC library from NCATS (AID 1117356)
# condition: recombinant FLT3, LANCE Ultra TR-FRET kinase assay; inhibition; at 2 µM; stronger effect = higher value
Reply numerically in %, unit not repeated.

These solved cases illustrate the format of a correct answer.
[
  {
    "compound": "CCCCC1C(=O)N(c2ccccc2)N(c2ccc(O)cc2)C1=O (configuration not stated)",
    "inhibition / %": 17.6
  },
  {
    "compound": "Cc1nc(N)nc(N)c1-c1ccc(Cl)c(Cl)c1",
    "inhibition / %": 8.61
  }
]

Exercise: Quick one: inhibition of COC(=O)c1nc(Cl)c(Cl)nc1N ?
Key: 51

Exercise: Quick one: inhibition of COC(=O)[C@H]1[C@H]2C[C@@H]3c4[nH]c5cc(OC)ccc5c4CCN3C[C@H]2C[C@@H](OC(=O)/C=C/c2ccc(O)c(OC)c2)[C@@H]1OC ?
Key: -4.17
